Where these numbers come from: patent US10202372B2

System: CaCo2
Test: Toxicity test on cells, CaCo2
Assay type: cell-based
Conditions: Homo sapiens, Caco-2; 48 hours of treatment, Hoechst nuclei staining
Method: The compounds according to the invention were also tested on the cell lines HuH7, CaCo-2, HCT116, PC3, NCl, HacaT and Fibroblasts. Operating Procedure: The cells were cultivated according to the ECACC recommendations. The toxicity test of the compounds on these cells was conducted as follows: 4×10^3 cells/well were sown in 96 wells. […] The acquisition of images and the analysis was carried out by means of a reader Cellomics ArrayScan VTI/HCS (Thermo Scientific).
Counter-ions that a name gives are not always drawn.
Group membership follows IC50 per the scheme low = under 3 µM, moderate = from 3 µM up to 6 µM, high = 6 µM and over

Recorded results for 5 compounds are shown here.
| Compound | Assigned Label |
| --- | --- |
| OCc1cnc2c(N3CCOCC3)nc(-c3cccc(O)c3)nc2c1 | low |
| C=Cc1cnc2c(N3CCOCC3)nc(-c3cccc(CO)c3)nc2c1 | moderate |
| Oc1cccc(-c2nc(N3CCOCC3)c3ncc(CNC4CCCCC4)cc3n2)c1 [Compound 28, hydrochloride] | high |
| Oc1ccc(-c2nc(N3CCOCC3)c3ncc(Cl)cc3n2)cc1 | high |
| CN1CCN(Cc2cnc3c(N4CCOCC4)nc(-c4cccc(O)c4)nc3c2)CC1 [Compound 30, hydrochloride] | low |

Kindly state the category for this compound: O=Cc1cnc2c(N3CCOCC3)nc(-c3cccc(O)c3)nc2c1
moderate

Please answer likewise for [N-]=[N+]=NCc1cnc2c(N3CCOCC3)nc(-c3cccc(O)c3)nc2c1
low

====

Target: PI3Kα (Homo sapiens, UniProt P42336)
Sequence (P42336 whole entry): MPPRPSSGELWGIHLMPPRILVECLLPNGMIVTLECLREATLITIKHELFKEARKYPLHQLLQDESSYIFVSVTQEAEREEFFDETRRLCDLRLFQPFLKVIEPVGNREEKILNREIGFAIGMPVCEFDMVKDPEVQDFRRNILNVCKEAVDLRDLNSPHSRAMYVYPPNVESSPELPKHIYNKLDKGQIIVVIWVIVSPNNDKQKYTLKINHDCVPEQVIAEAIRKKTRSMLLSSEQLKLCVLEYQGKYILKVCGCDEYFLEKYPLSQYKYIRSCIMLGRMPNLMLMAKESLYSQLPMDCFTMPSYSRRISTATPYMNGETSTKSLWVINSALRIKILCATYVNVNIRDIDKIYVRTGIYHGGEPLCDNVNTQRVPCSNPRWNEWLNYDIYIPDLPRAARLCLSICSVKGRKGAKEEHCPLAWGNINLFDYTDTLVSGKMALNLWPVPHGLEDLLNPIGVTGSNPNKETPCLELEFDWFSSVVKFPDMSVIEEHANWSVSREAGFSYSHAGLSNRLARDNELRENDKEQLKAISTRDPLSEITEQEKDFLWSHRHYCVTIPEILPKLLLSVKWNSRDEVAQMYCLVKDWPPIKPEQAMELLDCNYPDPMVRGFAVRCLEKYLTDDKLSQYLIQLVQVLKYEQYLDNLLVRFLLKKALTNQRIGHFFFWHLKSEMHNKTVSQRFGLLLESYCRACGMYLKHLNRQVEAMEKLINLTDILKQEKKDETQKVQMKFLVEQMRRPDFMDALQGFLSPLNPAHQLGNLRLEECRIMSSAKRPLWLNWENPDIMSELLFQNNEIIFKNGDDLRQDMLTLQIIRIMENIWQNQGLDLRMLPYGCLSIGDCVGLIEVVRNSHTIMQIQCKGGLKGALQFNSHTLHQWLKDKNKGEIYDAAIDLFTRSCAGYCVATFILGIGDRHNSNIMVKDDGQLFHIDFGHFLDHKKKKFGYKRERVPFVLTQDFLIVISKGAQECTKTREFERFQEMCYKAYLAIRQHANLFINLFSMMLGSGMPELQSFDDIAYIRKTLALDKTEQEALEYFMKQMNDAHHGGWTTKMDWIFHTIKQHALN
Sequence (P27986 whole entry partner): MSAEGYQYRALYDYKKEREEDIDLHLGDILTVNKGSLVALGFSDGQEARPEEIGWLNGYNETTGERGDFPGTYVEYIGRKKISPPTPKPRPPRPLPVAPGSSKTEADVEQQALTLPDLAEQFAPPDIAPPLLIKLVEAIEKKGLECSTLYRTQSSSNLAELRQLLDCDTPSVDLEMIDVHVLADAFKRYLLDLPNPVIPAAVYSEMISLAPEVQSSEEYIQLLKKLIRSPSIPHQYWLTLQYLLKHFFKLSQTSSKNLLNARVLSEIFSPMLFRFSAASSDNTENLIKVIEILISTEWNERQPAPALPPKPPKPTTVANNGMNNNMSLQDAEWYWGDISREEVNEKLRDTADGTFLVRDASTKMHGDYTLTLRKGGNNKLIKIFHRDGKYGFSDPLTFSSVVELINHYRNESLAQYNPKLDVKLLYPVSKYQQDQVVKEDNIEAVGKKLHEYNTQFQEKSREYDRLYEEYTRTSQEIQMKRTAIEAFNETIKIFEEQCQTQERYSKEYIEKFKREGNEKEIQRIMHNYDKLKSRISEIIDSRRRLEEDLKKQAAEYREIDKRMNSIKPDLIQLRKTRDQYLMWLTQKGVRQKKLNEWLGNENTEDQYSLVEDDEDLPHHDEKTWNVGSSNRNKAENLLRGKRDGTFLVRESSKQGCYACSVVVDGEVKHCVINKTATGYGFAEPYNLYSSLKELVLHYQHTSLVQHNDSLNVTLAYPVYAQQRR
Experiment: PI3Kα kinase activity, Adapta TR-FRET ADP detection
Conditions: purified p110α/p85α heterodimer, triplicate; read-out: Kinases IC50 PI3Kα
# pIC50 listing for each entry below
# log scale: pIC50 equals minus log10 of the concentration in mol/L

Examples from the recorded data:
| Molecule | Quantity Kind | Value |
| --- | --- | --- |
| Oc1cccc(-c2nc(N3CCOCC3)c3ncc(CNC4CC4)cc3n2)c1 [Compound 27] | pIC50 | 6.96 |
| OCC(O)c1cnc2c(N3CCOCC3)nc(-c3cccc(O)c3)nc2c1 (stereo not drawn) [Compound 22] | pIC50 | 7.09 |

Kindly consider the entry below.
Find pIC50 (PI3Kα (Homo sapiens, UniProt P42336)) for the entry C=Cc1cnc2c(N3CCOCC3)nc(-c3cccc(O)c3)nc2c1 [Compound 14]
7.01

====

Tested on: CaCo2
Test: Toxicity test on cells, CaCo2
Assay type: cell-based
Conditions: Homo sapiens, Caco-2; 48 hours of treatment, Hoechst nuclei staining
Where a name gives a salt, the structure may show the parent alone.
Quantity Kind: pIC50
Remember, pIC50 is on a log scale: it is -log10 of the molar concentration.

Past entries and their recorded results:
| Molecule | pIC50 |
| --- | --- |
| Oc1cccc(-c2nc(N3CCOCC3)nc3cc(Cl)cnc23)c1 | 4.70 |
| OCc1cccc(-c2nc(N3CCOCC3)c3ncc(Cl)cc3n2)c1 | 5.52 |

Query: pIC50; subject: Oc1cccc(-c2nc(N3CCOCC3)c3ncc(CNC4CC4)cc3n2)c1
5.52

Follow-up item: Oc1cccc(-c2nc(N3CCOCC3)c3ncc(CN4CCN(C5CCCCC5)CC4)cc3n2)c1
5.22

What about this molecule? OCC(O)c1cnc2c(N3CCOCC3)nc(-c3cccc(O)c3)nc2c1 (stereo not shown)
5.40

What about O=C(Nc1ccc(CO)cc1)Nc1ccc(-c2nc(N3CCOCC3)c3ncc(CN4CCOCC4)cc3n2)cc1 ?
4.92

Field entry: Oc1cccc(-c2nc(N3CCOCC3)c3ncc(CN4CCOCC4)cc3n2)c1 [Compound 29, hydrochloride]
5.52

Also, COCc1cn(Cc2cnc3c(N4CCOCC4)nc(-c4ccc(NC(=O)Nc5ccc(CO)cc5)cc4)nc3c2)nn1 please.
5.70
